Assay: modulators of mitochondrial supercomplex assembly, cell-based, luminescence, Hoechst nuclei count (AID 1645838);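 further: control cybrid cells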
Settings: Cells, luminescence/Hoechst cell count ratio, supercomplex reporter; measured here: cell number, Hoechst nuclei count
Hit rate of the full screen: of about 2,000 compounds, about 100 (5%) were called active. This excerpt belongs to a sample that is enriched for actives.
Readout Label: cell count

1. CCCCCCCCCCCCCCCC(=O)OC[C@H](COP(=O)([O-])OCC[N+](C)(C)C)OC(=O)CCCC=O
4750
2. CCCN(CCCN)N(O)N=O
5220
3. CCCCCCCCCCCCCCCCOC[C@@H](O)COP(=O)([O-])OCC[N+](C)(C)C
5770
4. CN=C(NS(=O)(=O)c1ccc(Cl)cc1)N1CC(c2ccccc2)C(c2ccc(Cl)cc2)=N1 (stereo not given)
4560
5. CCCCC/C=C\C/C=C\C/C=C\C/C=C\CCCC(=O)NCCc1c[nH]c2ccc(O)cc12
5300

----------
Assay: modulators of mitochondrial supercomplex assembly, cell-based, luminescence, Hoechst nuclei count (AID 1645838);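 further: control cybrid cells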;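 on z-score: higher means more mitochondrial supercomplex formation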
Details: Cells, luminescence/Hoechst cell count ratio, supercomplex reporter; library stock concentration (final well concentration not given) 2 mM; stronger effect = higher value
In all, about 2,000 compounds went through this assay and about 100 (5%) were called active. The sample as a whole holds a higher share of actives than the screen did.
Readout Label: z-score

1. Cc1sc2c(c1C)C(c1ccc(Cl)cc1)=NC(CC(=O)OC(C)(C)C)c1nnc(C)n1-2 (configuration not stated)
4.36 (active)
2. CS(=O)CCCCN=C=S (configuration not stated)
0.15 (inactive)
3. NCCc1c(Cl)cccc1Cl
0.163 (inactive)
4. C[N@@+]1(CC2CC2)CC[C@]23c4c5ccc(O)c4OC2C(=O)CC[C@@]3(O)C1C5 (some centres not stated)
1.12 (inactive)
5. O=C1C(=O)c2cccc3cccc1c23
0.0237 (inactive)
6. CC1CNCCc2ccc(Cl)cc21 (configuration not stated)
-0.135 (inactive)
7. COC1C(OC(=O)NC(=O)CCl)CC[C@]2(CO2)[C@@H]1[C@@]1(C)OC1CC=C(C)C (some centres not stated)
1.06 (inactive)
